molecular target: human Y2 receptor (human) (UniProt P49146); test: RBA: [125I]-PYY displacement, hY2R/CHO membranes
Sequence (P49146 whole entry): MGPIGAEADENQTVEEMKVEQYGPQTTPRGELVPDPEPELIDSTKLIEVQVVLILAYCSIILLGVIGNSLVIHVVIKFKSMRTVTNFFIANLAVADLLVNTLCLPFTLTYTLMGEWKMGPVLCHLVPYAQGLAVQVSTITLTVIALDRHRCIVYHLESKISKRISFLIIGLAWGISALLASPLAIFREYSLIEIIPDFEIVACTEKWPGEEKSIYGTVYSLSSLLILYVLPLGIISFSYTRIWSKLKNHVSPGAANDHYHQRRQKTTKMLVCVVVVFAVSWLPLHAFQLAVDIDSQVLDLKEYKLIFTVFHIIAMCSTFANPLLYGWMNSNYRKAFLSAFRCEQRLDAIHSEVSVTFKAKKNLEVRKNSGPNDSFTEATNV
Non-standard residues stand in square brackets, D forms with d. *: point of attachment. Phe(4-NH2) = Nc1ccc(C[C@H](N)C(=O)O)cc1; Cha = N[C@@H](CC1CCCCC1)C(=O)O; Bz = O=C(c1ccccc1)*

binder | IC50 Ratio (vs PYY(3-36))
Bz-RH[Cha]INL[Phe(4-NH2)]TRQR[Cha]-NH2 (SMILES CC[C@H](C)[C@H](NC(=O)[C@H](CC1CCCCC1)NC(=O)[C@H](Cc1c[nH]cn1)NC(=O)[C@H](CCCNC(=N)N)NC(=O)c1ccccc1)C(=O)N[C@@H](CC(N)=O)C(=O)N[C@@H](CC(C)C)C(=O)N[C@@H](Cc1ccc(N)cc1)C(=O)N[C@H](C(=O)N[C@@H](CCCNC(=N)N)C(=O)N[C@@H](CCC(N)=O)C(=O)N[C@@H](CCCNC(=N)N)C(=O)N[C@@H](CC1CCCCC1)C(N)=O)[C@@H](C)O) [Benzoyl-[Cha27,36, Ile28, Phe(4NH2)31]-PYY(25-36)] | 5
